- Test Summary: Solubility at tested concentrations in the fragment library screening
- Assay type: physicochemical
- Condition Label: tested concentration 1.7 mM
Reported Property: Solubility at tested concentrations

INSERT INTO measurements (compound, reported_value) VALUES
  ('O=C(O)c1nccnc1C(=O)Nc1ccc([N+](=O)[O-])cc1 [Compound C612-1047]', 'not soluble'),
  ('O=c1c(NCCN2CCCCCC2)c(-c2ccccc2)c1=O [Compound E470-0490]', 'not soluble'),
  ('CC1Cc2ccccc2N1c1c(-c2ccccc2)c(=O)c1=O (stereo not shown) [Compound E470-0446]', 'not soluble'),
  ('Cc1ccc(-c2c(N(C)c3ccc(C)cc3)c(=O)c2=O)cc1 [Compound E470-0191]', 'not soluble');
